Tested on: Escherichia coli TOP10
PROCEDURE_SUMMARY: shrunken log2 fold change of peptide-encoding DNA abundance (4.5 h post-induction vs induction); higher = less antimicrobial activity (less host growth inhibition)
ASSAY_CONDITIONS: time post-induction: 4.5 h; library: site-saturation at positions 5, 18, 19, 20
Assign Met whenever shrunken log2 fold change does not fall below 0.05; assign Not met whenever it does.

SEQUENCE_ENTRY | DISCRETE_LABEL
RRIRHRPPRLPRPRPRPKAKPRP | Not met
RRIRDRPPRLPRPRPRPFARPRP | Met
RRIRGRPPRLPRPRPRPKTFPRP | Met
RRIRPRPPRLPRPRPRPACHPRP | Met
RRIRGRPPRLPRPRPRPENQPRP | Met
RRIRLRPPRLPRPRPRPPFFPRP | Met
RRIRFRPPRLPRPRPRPIAHPRP | Not met
RRIRARPPRLPRPRPRPQNIPRP | Not met
RRIRYRPPRLPRPRPRPFLWPRP | Not met
RRIRTRPPRLPRPRPRPLHIPRP | Not met
RRIRFRPPRLPRPRPRPCIPPRP | Met
RRIRVRPPRLPRPRPRPYSRPRP | Not met
RRIRNRPPRLPRPRPRPVCVPRP | Not met
RRIRFRPPRLPRPRPRPCFPPRP | Not met

---

System: Escherichia coli TOP10
PROCEDURE_SUMMARY: shrunken log2 fold change of peptide-encoding DNA abundance (4.5 h post-induction vs induction); higher = less antimicrobial activity (less host growth inhibition)
ASSAY_CONDITIONS: time post-induction: 4.5 h; library: site-saturation at positions 5, 18, 19, 20
Assign yes (1) whenever shrunken log2 fold change does not fall below 0.04; assign no (0) whenever it does.

SEQUENCE_ENTRY | DISCRETE_LABEL
RRIRIRPPRLPRPRPRPFDAPRP | no (0)
RRIRYRPPRLPRPRPRPTMLPRP | no (0)
RRIRMRPPRLPRPRPRPVKFPRP | yes (1)
RRIRRRPPRLPRPRPRPTHWPRP | yes (1)
RRIRPRPPRLPRPRPRPKLVPRP | no (0)
RRIRVRPPRLPRPRPRPQYKPRP | no (0)
RRIRWRPPRLPRPRPRPACNPRP | no (0)
RRIRERPPRLPRPRPRPFVAPRP | no (0)
RRIRGRPPRLPRPRPRPVSWPRP | yes (1)
RRIRTRPPRLPRPRPRPWDLPRP | yes (1)
RRIRHRPPRLPRPRPRPAKWPRP | no (0)
RRIRHRPPRLPRPRPRPLGQPRP | yes (1)
RRIRCRPPRLPRPRPRPDWQPRP | no (0)
RRIRARPPRLPRPRPRPSNTPRP | no (0)
RRIRHRPPRLPRPRPRPARNPRP | yes (1)
RRIRERPPRLPRPRPRPAHHPRP | no (0)
RRIRYRPPRLPRPRPRPKKSPRP | no (0)
RRIRERPPRLPRPRPRPHKAPRP | no (0)
RRIRDRPPRLPRPRPRPEPKPRP | yes (1)
RRIRQRPPRLPRPRPRPSSPPRP | yes (1)
RRIRWRPPRLPRPRPRPDSYPRP | no (0)
RRIRYRPPRLPRPRPRPKSPPRP | no (0)
RRIRERPPRLPRPRPRPHDDPRP | no (0)
RRIRWRPPRLPRPRPRPQSNPRP | no (0)
RRIRERPPRLPRPRPRPCQYPRP | no (0)
RRIRERPPRLPRPRPRPEVRPRP | yes (1)
RRIRDRPPRLPRPRPRPCDDPRP | no (0)
RRIRIRPPRLPRPRPRPEIVPRP | no (0)
RRIRPRPPRLPRPRPRPCSEPRP | no (0)
RRIRERPPRLPRPRPRPCSKPRP | yes (1)
RRIRVRPPRLPRPRPRPPFQPRP | yes (1)
RRIRLRPPRLPRPRPRPFQWPRP | no (0)

---

Test system: Escherichia coli TOP10;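 note: peptides expressed intracellularly from a pBAD plasmid library in pooled LB shake-flask culture, induced with 0.3% L-arabinose, DNA abundance read by NGS, three biological replicates, DESeq2 with apeglm shrinkage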
PROCEDURE_SUMMARY: shrunken log2 fold change of peptide-encoding DNA abundance (4.5 h post-induction vs induction); higher = less antimicrobial activity (less host growth inhibition)
ASSAY_CONDITIONS: time post-induction: 4.5 h; library: site-saturation at positions 5, 18, 19, 20
MEASURED_PROPERTY: shrunken log2 fold change

SEQUENCE_ENTRY | MEASURED_PROPERTY | REPORTED_VALUE
RRIRPRPPRLPRPRPRPQYYPRP | shrunken log2 fold change | -0.422
RRIRHRPPRLPRPRPRPITFPRP | shrunken log2 fold change | -0.0514
RRIRPRPPRLPRPRPRPSCNPRP | shrunken log2 fold change | -0.314
RRIRSRPPRLPRPRPRPTPYPRP | shrunken log2 fold change | -0.26
RRIRNRPPRLPRPRPRPVAGPRP | shrunken log2 fold change | -0.124
RRIRNRPPRLPRPRPRPEWPPRP | shrunken log2 fold change | 0.178
RRIRARPPRLPRPRPRPHGRPRP | shrunken log2 fold change | 0.0226
RRIRPRPPRLPRPRPRPNAFPRP | shrunken log2 fold change | -0.0225
RRIRYRPPRLPRPRPRPLSLPRP | shrunken log2 fold change | -1.1
RRIRWRPPRLPRPRPRPFQHPRP | shrunken log2 fold change | 0.0415
RRIRFRPPRLPRPRPRPEVLPRP | shrunken log2 fold change | -0.0031
RRIRVRPPRLPRPRPRPHVTPRP | shrunken log2 fold change | -0.304
RRIRQRPPRLPRPRPRPFVCPRP | shrunken log2 fold change | -0.0472
RRIRMRPPRLPRPRPRPNKPPRP | shrunken log2 fold change | -0.0387
RRIRYRPPRLPRPRPRPLFTPRP | shrunken log2 fold change | -0.962
RRIRMRPPRLPRPRPRPLMAPRP | shrunken log2 fold change | 2.47
RRIRMRPPRLPRPRPRPDMIPRP | shrunken log2 fold change | -0.00213
RRIRTRPPRLPRPRPRPAIAPRP | shrunken log2 fold change | 0.101
RRIRGRPPRLPRPRPRPWRAPRP | shrunken log2 fold change | 0.311
RRIRMRPPRLPRPRPRPELPPRP | shrunken log2 fold change | 2.29
RRIRNRPPRLPRPRPRPHYPPRP | shrunken log2 fold change | -0.465
RRIRTRPPRLPRPRPRPGRMPRP | shrunken log2 fold change | 0.232
RRIRMRPPRLPRPRPRPNTDPRP | shrunken log2 fold change | -0.196
RRIRWRPPRLPRPRPRPEKMPRP | shrunken log2 fold change | -0.0237
RRIRNRPPRLPRPRPRPTHRPRP | shrunken log2 fold change | 0.597
RRIRLRPPRLPRPRPRPAFEPRP | shrunken log2 fold change | 0.36
RRIRERPPRLPRPRPRPRWEPRP | shrunken log2 fold change | 0.0891
RRIRFRPPRLPRPRPRPTAHPRP | shrunken log2 fold change | 0.193
RRIRHRPPRLPRPRPRPQDKPRP | shrunken log2 fold change | -0.355
RRIRKRPPRLPRPRPRPHREPRP | shrunken log2 fold change | -0.0175
RRIRIRPPRLPRPRPRPWPRPRP | shrunken log2 fold change | 0.277
RRIRMRPPRLPRPRPRPCYPPRP | shrunken log2 fold change | -0.352
RRIRIRPPRLPRPRPRPGMPPRP | shrunken log2 fold change | -0.0857
RRIRPRPPRLPRPRPRPGCCPRP | shrunken log2 fold change | 0.343
RRIRRRPPRLPRPRPRPKDFPRP | shrunken log2 fold change | -0.123
RRIRQRPPRLPRPRPRPSTEPRP | shrunken log2 fold change | -0.0926
RRIRIRPPRLPRPRPRPETEPRP | shrunken log2 fold change | 0.0848
RRIRLRPPRLPRPRPRPIHQPRP | shrunken log2 fold change | 0.0518
RRIRPRPPRLPRPRPRPFEYPRP | shrunken log2 fold change | -0.0601
RRIRKRPPRLPRPRPRPYFYPRP | shrunken log2 fold change | -0.274
RRIRKRPPRLPRPRPRPCPTPRP | shrunken log2 fold change | 0.0658
RRIRARPPRLPRPRPRPRWRPRP | shrunken log2 fold change | 0.934
RRIRGRPPRLPRPRPRPLPNPRP | shrunken log2 fold change | 0.781
RRIRTRPPRLPRPRPRPTAHPRP | shrunken log2 fold change | 0.0803
RRIRQRPPRLPRPRPRPVAWPRP | shrunken log2 fold change | 0.128
RRIRFRPPRLPRPRPRPLRYPRP | shrunken log2 fold change | -0.192
RRIRARPPRLPRPRPRPSSAPRP | shrunken log2 fold change | 1.29
RRIRPRPPRLPRPRPRPEWTPRP | shrunken log2 fold change | 0.22
RRIRARPPRLPRPRPRPENCPRP | shrunken log2 fold change | 0.177
RRIRNRPPRLPRPRPRPTVHPRP | shrunken log2 fold change | -0.514
RRIRKRPPRLPRPRPRPVSIPRP | shrunken log2 fold change | -0.0178
RRIRQRPPRLPRPRPRPDWRPRP | shrunken log2 fold change | 0.0703
RRIRKRPPRLPRPRPRPHWLPRP | shrunken log2 fold change | 0.148
RRIRKRPPRLPRPRPRPFHIPRP | shrunken log2 fold change | -0.025
RRIRLRPPRLPRPRPRPPPKPRP | shrunken log2 fold change | 1.8
RRIRCRPPRLPRPRPRPFYVPRP | shrunken log2 fold change | -0.825
RRIRWRPPRLPRPRPRPFTKPRP | shrunken log2 fold change | -0.151
RRIRQRPPRLPRPRPRPISTPRP | shrunken log2 fold change | -0.503
RRIRHRPPRLPRPRPRPQDDPRP | shrunken log2 fold change | 0.0649
RRIRIRPPRLPRPRPRPVHKPRP | shrunken log2 fold change | -0.442
RRIRYRPPRLPRPRPRPKGLPRP | shrunken log2 fold change | -0.0102
RRIRERPPRLPRPRPRPDIWPRP | shrunken log2 fold change | -0.0258
RRIRYRPPRLPRPRPRPMFPPRP | shrunken log2 fold change | -0.463

Recorded values, source the supplement of paper PMC9112550.
